system.name: Human immunodeficiency virus type 1 reverse transcriptase (Human immunodeficiency virus 1, UniProt Q72547)
pIC50: −log10 of the molar value.
Quick reference: pIC50 of the listed items.
metric.name: pIC50

compound: Cc1cn([C@@H]2O[C@H](CO[Si](C)(C)C(C)(C)C)[C@@]3(OS(=O)(=O)C=C3N)[C@H]2O[Si](C)(C)C(C)(C)C)c(=O)n(C)c1=O
recorded.value: 5.62
//
compound: Cc1cn([C@@H]2O[C@H](CO[Si](C)(C)C(C)(C)C)[C@]3(C=CS(=O)(=O)O3)[C@H]2O[Si](C)(C)C(C)(C)C)c(=O)n(C)c1=O
recorded.value: 5.48
//
compound: Nc1nc2c(ncn2[C@H]2CC[C@@H](COP(=O)(O)OP(=O)(O)OP(=O)(O)O)O2)c(=O)[nH]1 [DIDEOXY GUANOSINE TRIPHOSPHATE]
recorded.value: 6.65

----------
Test system: Human immunodeficiency virus 1
protocol.summary: Antiviral activity against wild type HIV1 infected in human CEM cells assessed as inhibition of syncytia formation
Format: functional, organism-based
recorded.conditions: Human immunodeficiency virus 1, CCRF-CEM
# Lookup of reported EC50 keyed by entry

smiles.text: Cc1cn([C@@H]2O[C@H](CO[Si](C)(C)C(C)(C)C)[C@@]3(OS(=O)(=O)C=C3NC(=O)C(N)=O)[C@H]2O[Si](C)(C)C(C)(C)C)c(=O)n(C)c1=O
EC50, µM: 0.028
--
smiles.text: Cc1cn([C@@H]2O[C@H](CO[Si](C)(C)C(C)(C)C)[C@@]3(OS(=O)(=O)C=C3N)[C@H]2O[Si](C)(C)C(C)(C)C)c(=O)[nH]c1=S
EC50, µM: 0.17
--
smiles.text: Cn1cnc2c(ncn2[C@@H]2O[C@H](CO[Si](C)(C)C(C)(C)C)[C@@]3(OS(=O)(=O)C=C3N)[C@H]2O[Si](C)(C)C(C)(C)C)c1=O
EC50, µM: 0.06
--
smiles.text: Cc1cn([C@@H]2O[C@H](CO[Si](C)(C)C(C)(C)C)[C@@]3(OS(=O)(=O)C=C3N)[C@H]2O[Si](C)(C)C(C)(C)C)c(=O)n(C)c1=O
EC50, µM: 0.04
--
smiles.text: Cc1cn([C@@H]2O[C@H](CO[Si](C)(C)C(C)(C)C)[C@@]3(NS(=O)(=O)N=C3N)[C@H]2O[Si](C)(C)C(C)(C)C)c(=O)n(C)c1=O
EC50, µM: 5.3
--
smiles.text: Cc1cn([C@@H]2O[C@H](CO[Si](C)(C)C(C)(C)C)[C@]3(C=CS(=O)(=O)O3)[C@H]2O[Si](C)(C)C(C)(C)C)c(=O)n(C)c1=O
EC50, µM: 0.15
--
smiles.text: CC1=CN([C@@H]2O[C@H](CO[Si](C)(C)C(C)(C)C)[C@@]3(OS(=O)(=O)C=C3N)[C@H]2O[Si](C)(C)C(C)(C)C)C(=O)NC1
EC50, µM: 0.1
--
smiles.text: Cc1cn([C@@H]2O[C@H](CO[Si](C)(C)C(C)(C)C)[C@@]3(OC(=O)N=C3N)[C@H]2O[Si](C)(C)C(C)(C)C)c(=O)n(C)c1=O
EC50, µM: 5.8
--
smiles.text: CNC(=O)c1cnnn1[C@@H]1O[C@H](CO[Si](C)(C)C(C)(C)C)[C@@]2(OS(=O)(=O)C=C2N)[C@H]1O[Si](C)(C)C(C)(C)C
EC50, µM: 0.08
--
smiles.text: CC(C)(C)[Si](C)(C)OC[C@H]1O[C@@H](n2cnc3c(N)ncnc32)[C@H](O[Si](C)(C)C(C)(C)C)[C@]12OS(=O)(=O)C=C2N
EC50, µM: 0.05

----------
System: Human immunodeficiency virus 2
protocol.summary: Antiviral activity against wild type HIV2 infected in human CEM cells assessed as inhibition of syncytia formation
Assay type: functional, organism-based
recorded.conditions: Human immunodeficiency virus 2, CCRF-CEM
pEC50: −log10 of the molar value.
Quick reference for pEC50 among some compounds

smiles.text: Cc1cn([C@@H]2O[C@H](CO[Si](C)(C)C(C)(C)C)[C@]3(C=CS(=O)(=O)O3)[C@H]2O[Si](C)(C)C(C)(C)C)c(=O)n(C)c1=O
pEC50: < 5.70
//
smiles.text: CNC(=O)CCCCn1c(=O)c(C)cn([C@@H]2O[C@H](CO[Si](C)(C)C(C)(C)C)[C@@]3(OS(=O)(=O)C=C3N)[C@H]2O[Si](C)(C)C(C)(C)C)c1=O
pEC50: < 5.00
//
smiles.text: CC1=CN([C@@H]2O[C@H](CO[Si](C)(C)C(C)(C)C)[C@@]3(OS(=O)(=O)C=C3N)[C@H]2O[Si](C)(C)C(C)(C)C)C(=O)NC1
pEC50: < 5.00
//
smiles.text: Cc1cn([C@@H]2O[C@H](CO[Si](C)(C)C(C)(C)C)[C@@]3(OS(=O)(=O)C=C3N)[C@H]2O[Si](C)(C)C(C)(C)C)c(=O)n(C)c1=O
pEC50: < 3.60
//
smiles.text: CNC(=O)c1cnnn1[C@@H]1O[C@H](CO[Si](C)(C)C(C)(C)C)[C@@]2(OS(=O)(=O)C=C2N)[C@H]1O[Si](C)(C)C(C)(C)C
pEC50: < 5.15
//
smiles.text: Cc1cn([C@@H]2O[C@H](CO[Si](C)(C)C(C)(C)C)[C@@]3(OS(=O)(=O)C=C3N)[C@H]2O[Si](C)(C)C(C)(C)C)c(=O)[nH]c1=S
pEC50: < 5.70
//
smiles.text: Cc1cn([C@@H]2O[C@H](CO[Si](C)(C)C(C)(C)C)[C@@]3(OC(=O)N=C3N)[C@H]2O[Si](C)(C)C(C)(C)C)c(=O)n(C)c1=O
pEC50: < 4.46
//
smiles.text: Cn1cnc2c(ncn2[C@@H]2O[C@H](CO[Si](C)(C)C(C)(C)C)[C@@]3(OS(=O)(=O)C=C3N)[C@H]2O[Si](C)(C)C(C)(C)C)c1=O
pEC50: < 3.82
//
smiles.text: Cc1cn([C@@H]2O[C@H](CO[Si](C)(C)C(C)(C)C)[C@@]3(NS(=O)(=O)N=C3N)[C@H]2O[Si](C)(C)C(C)(C)C)c(=O)n(C)c1=O
pEC50: < 5.15
//
smiles.text: CC(C)(C)[Si](C)(C)OC[C@H]1O[C@@H](n2cnc3c(N)ncnc32)[C@H](O[Si](C)(C)C(C)(C)C)[C@]12OS(=O)(=O)C=C2N
pEC50: < 5.00
//
smiles.text: Cc1cn([C@@H]2O[C@H](CO[Si](C)(C)C(C)(C)C)[C@@]3(OS(=O)(=O)C=C3N)[C@H]2O[Si](C)(C)C(C)(C)C)c(=O)[nH]c1=O
pEC50: < 4.70
//
smiles.text: Cc1cn([C@@H]2O[C@H](CO[Si](C)(C)C(C)(C)C)[C@@]3(OS(=O)(=O)C=C3NC(=O)C(N)=O)[C@H]2O[Si](C)(C)C(C)(C)C)c(=O)n(C)c1=O
pEC50: < 5.15

----------
system.name: Human immunodeficiency virus type 1 reverse transcriptase (Human immunodeficiency virus 1, UniProt Q72547, K101E)
protocol.summary: Inhibition of HIV-1 reverse transcriptase K101E mutant-mediated polymerization reaction after 30 mins
pIC50: −log10 of the molar value.
Property: pIC50; scope: individual compounds

compound: Cc1cn([C@@H]2O[C@H](CO[Si](C)(C)C(C)(C)C)[C@@]3(OS(=O)(=O)C=C3N)[C@H]2O[Si](C)(C)C(C)(C)C)c(=O)n(C)c1=O
pIC50: < 3.78

compound: Nc1nc2c(ncn2[C@H]2CC[C@@H](COP(=O)(O)OP(=O)(O)OP(=O)(O)O)O2)c(=O)[nH]1 [DIDEOXY GUANOSINE TRIPHOSPHATE]
pIC50: 6.61

compound: Cc1cn([C@@H]2O[C@H](CO[Si](C)(C)C(C)(C)C)[C@@]3(OS(=O)(=O)C=C3N)[C@H]2O[Si](C)(C)C(C)(C)C)c(=O)[nH]c1=O
pIC50: ≤ 3.77
